Hello, the source for this data is patent US8242109B2, in case you need it.

Target: F1F0-ATPase (Bos taurus, UniProt P13621)
Construct: from tissue; host or cells: bovine sub-mitochondrial particles (SMPs)
Experiment: Inhibition of ATP synthesis and hydrolysis by the F1F0-ATPase
Type: biochemical
Description: The compounds listed in Table 4 were tested for activity against F1F0-ATPase and cytotoxicity in Ramos cells. Inhibition of ATP synthesis and hydrolysis by the F1F0-ATPase was measured as described in K. M. Johnson et al., Chemistry & Biology 2005, 12, 485-496. […]
pIC50: −log10 of the molar value.
Parameter Measured: pIC50

Previously resolved entries follow.
CN1C(=O)C(Cc2ccc(Br)cc2)N=C(c2ccc(O)cc2)c2cc(Cl)ccc21 (stereo not shown) = > 5.30
CNC(=O)Nc1ccc(C2=NC(Cc3ccccc3Cl)C(=O)Nc3ccc(Cl)cc32)cc1 (stereo not shown) = 5.00 to 5.30
Cc1ccc(CC2N=C(c3ccc(O)cc3)c3cc(Cl)ccc3N(C)C2=O)cc1 (stereo not shown) = < 5.00

Ask: Answer with the recorded pIC50 for the compound listed here: Cc1cccc(CC2N=C(c3ccc(O)cc3)c3cc(Cl)ccc3NC2=O)c1 (stereo not shown)
Reply: 5.00 to 5.30

----------
Molecular target: F1F0-ATPase (Bos taurus, UniProt P13621)
Construct: from tissue; host or cells: bovine sub-mitochondrial particles (SMPs)
Assay: Inhibition of ATP synthesis and hydrolysis by the F1F0-ATPase
Type: biochemical
Settings: read-out: ATPase IC50
pIC50: −log10 of the molar value.
Task for the reader: assign each of the following compounds its reported pIC50.

Previously resolved entries follow.
O=C(NCC(F)(F)F)Nc1ccc(C2=NC(Cc3ccccc3Cl)C(=O)Nc3ccc(Cl)cc32)cc1 (centres unmarked) = > 5.30
COCCNC(=O)Nc1ccc(C2=NC(Cc3ccccc3Cl)C(=O)Nc3ccc(Cl)cc32)cc1 (centres unmarked) = 5.00 to 5.30
CCOCCNC(=O)Nc1ccc(C2=NC(Cc3ccccc3Br)C(=O)Nc3ccc(Cl)cc32)cc1 (centres unmarked) = 5.00 to 5.30
CN(C)CCNC(=O)Nc1ccc(C2=NC(Cc3ccccc3Cl)C(=O)Nc3ccc(Cl)cc32)cc1 (centres unmarked) = < 5.00
CC(C)NC(=O)Nc1ccc(C2=NC(Cc3ccccc3C(F)(F)F)C(=O)Nc3ccc(Cl)cc32)cc1 (centres unmarked) = 5.00 to 5.30
CC(C)NC(=O)Nc1ccc(C2=NC(Cc3ccccc3F)C(=O)Nc3ccc(Cl)cc32)cc1 (centres unmarked) = 5.00 to 5.30

State the recorded pIC50 for every item in the following list.
1. O=C(Nc1ccc(C2=NC(Cc3ccccc3Cl)C(=O)Nc3ccc(Cl)cc32)cc1)NC1CC1 (centres unmarked)
2. O=C(NCC(F)(F)F)Nc1ccc(C2=NC(Cc3ccccc3Br)C(=O)Nc3ccc(Cl)cc32)cc1 (centres unmarked)
3. CCOCCNC(=O)Nc1ccc(C2=NC(Cc3ccccc3Cl)C(=O)Nc3ccc(Cl)cc32)cc1 (centres unmarked)
4. COCCNC(=O)Nc1ccc(C2=NC(Cc3ccccc3Br)C(=O)Nc3ccc(Cl)cc32)cc1 (centres unmarked)
5. CC(C)NC(=O)Nc1ccc(C2=NC(Cc3ccccc3Cl)C(=O)Nc3ccc(Cl)cc32)cc1 (centres unmarked)
6. O=C(Nc1ccc(C2=NC(Cc3ccccc3Br)C(=O)Nc3ccc(Cl)cc32)cc1)NC1CC1 (centres unmarked)
7. CC(C)NC(=O)Nc1ccc(C2=NC(Cc3ccccc3Br)C(=O)Nc3ccc(Cl)cc32)cc1 (centres unmarked)
8. CN(C)CCNC(=O)Nc1ccc(C2=NC(Cc3ccccc3Br)C(=O)Nc3ccc(Cl)cc32)cc1 (centres unmarked)

Reply:
["5.00 to 5.30", "> 5.30", "5.00 to 5.30", "5.00 to 5.30", "5.00 to 5.30", "5.00 to 5.30", "5.00 to 5.30", "5.00 to 5.30"]
